tested on: RXF 393 renal; experiment: NCI-60 one-dose screen, 48 h; settings: 10 µM unless noted
Compounds without any hit were thinned out: in the full panel of roughly 83,000, 20% have a hit. Calls of active or inactive are those of the source. Rule for the calls: active = growth percent below 10; inactive = the rest.
Output constraint: value belongs to 1.0 (active), 0.0 (inactive)

COc1cc(-c2nc3cc(Cl)c(Cl)cc3[nH]2)ccc1OCC(=O)N=Nc1c(O)[nH]c2ccc([N+](=O)[O-])cc12: 0.0
O=C(/C=C/c1ccccc1)c1cccc(OCCCOc2cccc(C(=O)/C=C/c3ccccc3)c2)c1: 0.0
O=C(CSc1nc2ccc([N+](=O)[O-])cc2[nH]1)Nc1ccc(F)cc1: 0.0
COc1ccc(N2CCC(=O)NC2=S)cc1: 0.0
CN1CCN(C(=O)OCc2ccc3c(Cl)cc(Cl)c(O)c3n2)CC1: 0.0
CCOC(=O)C#Cc1c(C(=O)OCC)nnn1[C@@H]1O[C@H](CO)[C@H]2OC3(CCCCC3)O[C@H]21: 1.0

Give the logged outcome of this assay for the following molecule: CN(C)C1CCN(Cc2ccc(NC(=O)c3cncc(C#Cc4cnc(N)c5ncccc45)c3)cc2C(F)(F)F)CC1
0.0

* * *

System: OVCAR-5 ovarian
Test: NCI-60 one-dose screen, 48 h (100 = growth as untreated, 0 = no growth, -100 = all killed)
Details: 10 µM unless noted
Protocol: Growth inhibition of the OVCAR-5 human tumor cell line is measured as a screen for anti-cancer activity. Cells are grown in 96 well plates and exposed to the test compound for 48 hours. Compounds are tested at a single concentration, which is 10^-5 M for most compounds. The reported endpoint is percent growth (GI% or GIPRCNT), where numbers from 0 - 100% represent growth inhibition, and numbers from -100% - 0 represent cell death. For example, a value of 40 represents 60% growth inhibition. […]
This is part of a sample that, as a whole, favours compounds with a hit. Of some 83,000 tested, about 20% had one in any assay.
growth of 50% or higher: condition met. Under 50%: condition not met.

c1ccc(CNc2c3ccccc3nc3ccccc23)cc1: condition not met
O=C1/C(=C/c2ccc(Cl)c(Cl)c2)CN(C(=O)C(Cl)Cl)C/C1=C\c1ccc(Cl)c(Cl)c1: condition not met

Read the next record carefully.
growth >= 50% for COc1ccc2cc(C(=O)c3coc4ccc(O)cc34)ccc2c1 ?
condition met

* * *

Listing of entries alongside the reported growth.
system: HT29 colon; assay: NCI-60 one-dose screen, 48 h (100 = growth as untreated, 0 = no growth, -100 = all killed); details: 10 µM unless noted
About 83,000 compounds went through this panel and 20% of them were active in at least one assay; those are over-represented in the sample as a whole.
Report the figure in % without appending any unit label.

Solved cases (3 shown):
O=C(O)[C@@H]1c2ccccc2-c2ccccc2[C@H]1C(=O)O: 102
Cc1cc2c(O)c(-c3cccc(Cl)c3)c3sc(=O)oc3c2cc1C: 111
Oc1c(Cl)cc(Cl)c2ccc(Cn3cc(-c4ccc(C(F)(F)F)cc4)nn3)nc12: 74.2

Form field: reported growth of Cn1c(=O)c2[nH]c(N/N=C/c3ccccc3Br)nc2n(C)c1=O
106

Form field: reported growth of N#C/C(=C/c1ccc([N+](=O)[O-])cc1)n1nnc2cc(F)c(F)cc21
69.4

Form field: reported growth of C=C1C(=O)O[C@H]2[C@H]1CC/C(COC(=O)CSCCSCC(=O)OC/C1=C/CC[C@@]3(C)O[C@H]3[C@H]3OC(=O)C(=C)[C@@H]3CC1)=C\CC[C@@]1(C)O[C@@H]21
0.0255

Form field: reported growth of Cc1ccc(-c2nc3nc(-c4ccccc4)nc(N4CCNCC4)c3o2)cc1
-74.4

Form field: reported growth of CCNc1cc(-c2cccc(OC(F)(F)F)c2)nc2ccc(N3CCCC3)cc12
4.79

Form field: reported growth of CCN(CC)C(=S)SC(SC(=S)N(CC)CC)C(=O)c1nnn(-c2ccc([N+](=O)[O-])cc2)c1C
87.3

* * *

test system: MCF7 breast; assay: NCI-60 one-dose screen, 48 h (100 = growth as untreated, 0 = no growth, -100 = all killed); conditions: 10 µM unless noted
Compounds without any hit were thinned out: in the full panel of roughly 83,000, 20% have a hit. Calls of active or inactive are those of the source. How the source made its calls: active means growth percent below 10; inactive means the rest.
experimental.endpoint: growth

Solved cases (4 shown):
CCCCCCCCn1ccc2cc(NC(=O)CN3CCN(c4nc(C)cc(Cl)n4)CC3)ccc21: 78.1% (inactive)
CCOC(=O)c1c(C)c2c(n1C)CSc1cc(C(=O)c3ccccc3)c(=O)[nH]c1-2: 90.6% [100 µM] (inactive)
COc1ccc(C(=O)C2C(c3ccc(OC)cc3)CN(C)C23C(=O)Nc2ccccc23)cc1 (stereo not given): 98.8% (inactive)
Cc1nc2c(=O)[nH]c(SCC(=O)Nc3cccc(F)c3)nc2[nH]c1=O: 92.7% (inactive)

Lab note: need growth for O=C(CSc1nc2ccc([N+](=O)[O-])cc2[nH]1)Nc1cccc(C(F)(F)F)c1 on MCF7 breast, anyone have it?
15.7% (inactive)

* * *

tested on: SK-MEL-28 melanoma; test: NCI-60 one-dose screen, 48 h (100 = growth as untreated, 0 = no growth, -100 = all killed); conditions: 10 µM unless noted
Compounds without any hit were thinned out: in the full panel of roughly 83,000, 20% have a hit.
Listing of entries alongside the reported growth.
Report the figure in % without appending any unit label.

Solved cases (5 shown):
O=[N+]([O-])C1C(c2ccccc2)C12c1ccccc1-c1ccccc12 (stereo unspecified): 49.2
C#CCOc1cccc(Nc2ncnc3ccc(NC(=O)CCl)cc23)c1: -17.2
CCCCCCC1(C)NCCO1 (stereo unspecified): 110
Cn1c(=O)c2c(nc(NC3=NS(=O)(=O)c4ccccc43)n2CC(=O)N2CCc3ccccc32)n(C)c1=O: 105
CCn1c(SCC(=O)c2ccc(Br)cc2)nnc1-c1ccncc1: 109

Lab note: need growth for N=C(N)c1ccc(-c2ccc(-c3cc(Cl)cc(Cl)c3)o2)o1 on SK-MEL-28 melanoma, anyone have it?
-80.2

Lab note: need growth for Cc1ccc(S(=O)(=O)N2CCCC2CO)cc1 (stereo unspecified) on SK-MEL-28 melanoma, anyone have it?
163

Lab note: need growth for Brc1ccc2[nH]cc(-c3nonc3-c3c[nH]c4ccccc34)c2c1 on SK-MEL-28 melanoma, anyone have it?
77.6

Lab note: need growth for Cn1ccnc1C(=O)C(=O)Nc1ccc(CC(=O)Nc2ccccc2)cc1 on SK-MEL-28 melanoma, anyone have it?
107

Lab note: need growth for NC(=O)CCC(C(=O)O)N1C(=O)c2ccc(O)cc2C1=O (stereo unspecified) on SK-MEL-28 melanoma, anyone have it?
124

Lab note: need growth for O=C(CCC(=O)N/N=C/c1ccccc1O)N/N=C/c1ccccc1O on SK-MEL-28 melanoma, anyone have it?
45.2

* * *

tested on: NCI-H460 lung; experiment: NCI-60 one-dose screen, 48 h (100 = growth as untreated, 0 = no growth, -100 = all killed); details: 10 µM unless noted
This is part of a sample that, as a whole, favours compounds with a hit. Of some 83,000 tested, about 20% had one in any assay. The source made the active and inactive calls. The calls were made as follows: active = growth percent below 10; inactive = the rest.
Listing of entries alongside the reported growth.

O=C(CCc1nnc(Cn2cnc3nc[nH]c3c2=O)o1)c1nc2ncccc2[nH]1: 105% (inactive)
Cc1ccccc1NC(=O)c1sc2nc(C)c(C(=O)/C=C/c3ccccc3)cc2c1N: 0.299% (active)
Cc1nc2sc(C(=O)Nc3cccc(Cl)c3C)c(N)c2cc1C(=O)c1ccccc1: 7.35% (active)
CCn1c(SCC(=O)c2ccc(Br)cc2)nnc1-c1ccncc1: 108% (inactive)
COc1cc(/C=C\c2cc(/C=C\c3ccc(O)c(OC)c3)n(C(=O)COc3ccc(Cl)cc3Cl)n2)ccc1O: 9.28% (active)
CCO/C=N/C1=C(C#N)C(c2ccc(OC)cc2)c2sc3c(F)cccc3c2O1 (stereo not given): 12.7% (inactive)
Fc1cc2c(cc1Cl)N(c1ncnc3ccc(-c4cnc5[nH]ncc5c4)cc13)CC2: 54.7% (inactive)
O=C1/C(=C/c2ccc(Cl)c(Cl)c2)CN(C(=O)C(Cl)Cl)C/C1=C\c1ccc(Cl)c(Cl)c1: -55.8% (active)
COC(=O)CCC(=O)C(=O)OC: 7.63% [10 mM] (active)

Form field: reported growth of CCCCC(=O)c1ccco1
106% (inactive)

* * *

Listing of entries alongside the reported growth.
system: ACHN renal; assay: NCI-60 one-dose screen, 48 h (100 = growth as untreated, 0 = no growth, -100 = all killed); settings: 10 µM unless noted
Compounds without any hit were thinned out: in the full panel of roughly 83,000, 20% have a hit. Activity calls are given as the source filed them. Rule for the calls: active = growth percent below 10; inactive = the rest.

Solved cases (9 shown):
Cn1cc(-c2nonc2-c2c[nH]c3ccc(Br)cc23)c2cc(Br)ccc21: 14.3% (inactive)
COc1ccccc1NC(=O)Cn1cc(CN2CCN(c3ccnc4cc(Cl)ccc34)CC2)nn1: 95.3% (inactive)
COC(=O)c1cc(-c2ccc(S(C)(=O)=O)cc2)[nH]c1N/N=C/c1c(Cl)cccc1Cl: 53.7% (inactive)
O=Nc1c(-c2c(O)[nH]c3ncccc23)[nH]c2ccccc12: 22.6% (inactive)
O=C1CNC(c2ccccc2)C(c2ccccc2)N1 (stereo not given): 98.5% (inactive)
COc1ccc(CC(C#N)c2cc3ccccc3[nH]2)cc1 (stereo not given): 93.9% (inactive)
CN1C(=O)N(C)C2Nn3c(s/c(=C\c4ccc(C(F)(F)F)cc4)c3=O)=NC21 (stereo not given): 105% (inactive)
CC1(c2ccccc2O)NN=C(/N=C/c2cccc([N+](=O)[O-])c2)N1C(Cc1c[nH]c2ccccc12)C(=O)O (stereo not given): 91.1% (inactive)
O=C(/C=C/c1ccc(Cl)cc1)c1cccc(Nc2nc(Nc3ccccc3)nc(Nc3ccccc3)n2)c1: 92.9% (inactive)

We next turn to a different compound, shown below.
Lab note: need growth for N#Cc1cnc(NCCc2ccncc2)nc1-n1cnc2ccccc21 on ACHN renal, anyone have it?
26.1% (inactive)
